System: XF498
procedure-details: NCI tumour cell line growth inhibition, 48 h
Activity calls are given as the source filed them. Cut-off read from the data, not from the text of the source: active = GI50 up to about 1.1 µM and inactive = higher.
Listed here: items and their measured GI50.

Solved cases below.
C[C@]12CC[C@H](O)CC1=CC[C@@H]1C2CC[C@]2(C)C(=O)NC(=O)CC12 (stereo not given in full)	> 100 µM (inactive)
CCOC(=O)C1S/C(=N\c2ccc(C)c(C)c2)N=C1C (stereo not given)	> 100 µM (inactive)
O=c1ccc2ccccc2o1	> 100 µM (inactive)
C/C=C1/C(=Cc2[nH]c(C=c3[nH]/c(=C/C4=NC(=O)C(CC)=C4C)c(C)c3CCC(=O)O)c(CCC(=O)O)c2C)NC(=O)C1C (stereo not given)	8.63 µM (inactive)

Name the reported GI50 value associated with the compound Cc1ccc(N2C(=O)/C(=C3\Sc4c(nc(C)n(C)c4=O)N3c3ccccc3)SC2=S)cc1
> 100 µM (inactive)

###

System: ACHN
procedure-details: NCI tumour cell line growth inhibition, 48 h
Active and inactive are the calls of the source. Rule as the data show it: active = GI50 up to about 1.1 µM and inactive = higher.
measured-quantity: GI50

Solved cases below.
CCOc1ccccc1NC(=O)C1=C(C)NC(C)=C(C(=O)Nc2ccccc2OCC)C1c1ccc2c(c1)OCO2	36.8 µM (inactive)
Clc1nc(Cl)c(CBr)c(Cl)n1	4.84 µM (inactive)
O=C1OC(c2ccccc2)=N/C1=C\c1cn[nH]n1	> 100 µM (inactive)

Name the reported GI50 value associated with the molecule CC(=O)N1CCN(c2ccc(OCC3COC(Cn4ccnc4)(c4ccc(Cl)cc4Cl)O3)cc2)CC1 (stereo not given)
36.2 µM (inactive)

Name the reported GI50 value associated with the molecule CC(C)(C)c1ccc(CN2CCN(C(c3ccccc3)c3ccc(Cl)cc3)CC2)cc1 (stereo not given)
68.5 µM (inactive)

###

Test system: LXFL 529
procedure-details: NCI tumour cell line growth inhibition, 48 h
The source made the active and inactive calls. No stated cut-off is given here; in the data, active = GI50 up to about 1.1 µM and inactive = higher.
measured-quantity: GI50

Cn1nc(-c2ccccc2)c(C(=O)/C=C/c2ccc(F)cc2)c(N2CCOCC2)c1=O	16 µM (inactive)
CC1=NN(C(=O)c2ccccc2O)C(=O)/C1=C/c1ccccc1O	0.0573 µM (active)
O=c1c2c([nH]c3cc4c(cc13)OCO4)-c1ccccc1C2	22.7 µM (inactive)
CCN(CC)CCCNc1nccc2c(C)c3[nH]c4ccncc4c(=O)c3cc12	1.48 µM (inactive)
O=c1ccc2ccccc2o1	> 100 µM (inactive)
O=P(c1ccccc1)(c1ccccc1)C1CC=C(c2ccccc2)C2(CCCC2)C1 (stereo unspecified)	> 100 µM (inactive)

Name the reported GI50 value associated with the compound COc1ccc(Cn2c(C)nc3c2C(=O)c2ccccc2C3=O)cc1
4.31 µM (inactive)

Name the reported GI50 value associated with the compound Brc1cc2c(cc1C1SCCS1)OCO2
> 100 µM (inactive)

Name the reported GI50 value associated with the compound COc1ccc(C2=C(Cl)c3cc(OC)c(OC)cc3C2)cc1OC
> 100 µM (inactive)

Name the reported GI50 value associated with the compound C[C@]12CC[C@H](O)CC1=CC[C@@H]1C2CC[C@]2(C)C(=O)NC(=O)CC12 (stereo partly specified)
74.3 µM (inactive)

Name the reported GI50 value associated with the compound CC(=O)N[C@@H]1C(O)CN2C(=O)C(=O)O[C@H](C(O)CO)[C@@H]12 (stereo partly specified)
> 100 µM (inactive)

###

What follows is a record of GI50 for HCT-15.

N#Cc1c(-c2ccccc2)cc(Nc2cccc(C(F)(F)F)c2)n2c1nc1ccccc12	1.38 µM
CCCCC(=O)Nc1ccc2cc(C(=O)OC)c(ON3C(=O)c4ccccc4C3=O)nc2n1	40.6 µM
Cc1ccc(S(=O)OC23CC4CC(CC(C4)C2)C3)cc1 (centres undefined)	> 100 µM

Field: GI50 (HCT-15). Entry: O=C(Cn1cc(F)c(=O)[nH]c1=O)C12CC3CC(CC(C3)C1)C2
> 100 µM

Field: GI50 (HCT-15). Entry: CO[C@H]1O[C@@H]2CO[C@@H](c3ccccc3)O[C@H]2[C@@H]2C/C=C\CCC[C@@]12O
24.4 µM

Field: GI50 (HCT-15). Entry: O=[N+]([O-])c1cccc2nccc(NCCCO)c12
8.11 µM

Field: GI50 (HCT-15). Entry: CN1C(=N\S(=O)(=O)c2ccc(Cl)cc2)/C(=N/N=P(c2ccccc2)(c2ccccc2)c2ccccc2)c2ccccc21
> 100 µM

Field: GI50 (HCT-15). Entry: Nc1ccc(C(=O)NN2C(=O)C(Cl)C2c2ccc(O)cc2)cc1 (centres undefined)
21.4 µM

Field: GI50 (HCT-15). Entry: COc1cc2cc(C(=O)N3CC(CCl)c4c3cc(NC(=O)C(C)(C)c3ccccc3[N+](=O)[O-])c3ccccc43)[nH]c2c(OC)c1OC (centres undefined)
1.98 µM

Value source: ChEMBL document CHEMBL1201862
